Where do these numbers come from? They come from patent US10494380B2.

- System: HIV
- Assay type: cell-based
- Applied Conditions: EC50 in the presence of human serum (25%) versus without human serum, MT-4 cells
So basically: is Potency shift value under 5? Then met. Not under? Then not met.

Req: Is 5 strictly greater than the compound's reported Potency shift value? compound: Cc1ccc(-c2c([C@H](OC(C)(C)C)C(=O)O)c(C)c3c4c2cc(C)n4CC(=O)N3C)cc1 [Compound I-020]
Resp: not met

Req: Take the compound Cc1c([C@H](OC(C)(C)C)C(=O)O)c(-c2ccc(Cl)cc2)c2cc(C)n3c2c1N(c1ncc(OCCCN(C)C)cn1)CC3 [Compound I-257] and say whether its Potency shift value is less than 5.
Resp: met

Req: Hello, is Potency shift value of the following compound strictly smaller than 5? CC(=O)NCCOc1cnc(N2CCn3c(C)cc4c(-c5ccc(C)cc5)c([C@H](OC(C)(C)C)C(=O)O)c(C)c2c43)nc1 [Compound I-295]
Resp: not met

Req: In the record for Cc1ccc(-c2c([C@H](OC(C)(C)C)C(=O)O)c(C)c3c4c2cc(C)n4CCN3c2noc(C)n2)cc1 [Compound I-227] , is Potency shift value less than 5?
Resp: not met

Req: Take the compound Cc1c([C@H](OC(C)(C)C)C(=O)O)c(-c2ccc(Cl)cc2)c2cc(C)n3c2c1N(c1ncc(C2CCOCC2)cn1)CC3 [Compound I-311] and say whether its Potency shift value is less than 5.
Resp: not met

Req: Here's an entry: Cc1ccc(-c2c([C@H](OC(C)(C)C)C(=O)O)c(C)c3c4c2cc(C)n4CCN3c2ncc(C3CCN(C)CC3)cn2)cc1 [Compound I-213] . Is its Potency shift value below 5?
Resp: met

* * *

Task for the reader: assign each of the following molecules its reported EC90.
- Tested on: HIV (HTLV-IIIB strain)
- Assay Procedure: HIV replication inhibition assay (Test Example 1; MT-4 cells, MTT)
- Assay type: cell-based
- Applied Conditions: Human immunodeficiency virus 1, MT4, 96 h; HIV (HTLV-IIIB strain), MT-4 cells, MTT, four days; read-out: EC90
Entry rule: numbers only, all in nM.

Req: Given "Cc1c([C@H](OC(C)(C)C)C(=O)O)c(-c2ccc(Cl)cc2)c2cc(C)n3c2c1N1C(=O)OCC[C@@H]1C3" , state its recorded EC90.
Resp: 18

Req: Please report the recorded EC90 for "CCCc1cc2c(-c3ccc(C)cc3)c([C@H](OC(C)(C)C)C(=O)O)c(C)c3c2n1CCN3C" .
Resp: 15

Req: Tell me the measured EC90 of Cc1ccc(-c2c([C@H](OC(C)(C)C)C(=O)O)c(C)c3c4c2cc(C)n4CCN3C)c(O)c1 (mixture of isomers) , please.
Resp: 42

Req: Report EC90 for "Cc1ccc(-c2c([C@H](OC(C)(C)C)C(=O)O)c(C)c3c4c2cc(C)n4CCN3c2ncc(OCF)cn2)cc1" please.
Resp: 2.1

Req: Entry "Cc1ccc(-c2c([C@H](OC(C)(C)C)C(=O)O)c(C)c3c4c2cc(C)n4CCN3CCNC2CC2)cc1" : reported EC90 = ?
Resp: 93

Req: What value of EC90 has been recorded for this entry: "Cc1ccc(-c2c([C@H](OC(C)(C)C)C(=O)O)c(C)c3c4c2cc(C)n4CCN3CCN2CCCO2)cc1"
Resp: 5.2

Req: Which EC90 value belongs to "Cc1ccc(-c2c([C@H](OC(C)(C)C)C(=O)O)c(C)c3c4c2cc(C)n4CCN3c2nc3c(s2)CCN(C)C3)cc1" ?
Resp: 5.1

Req: Field request: EC90 | item: "Cc1ccc(-c2c([C@H](OC(C)(C)C)C(=O)O)c(C)c3c4c2cc(C)n4CCN3c2ncc(OCCCN(C)C)cn2)cc1"
Resp: 18

Req: // EC90 lookup, key: "COc1cnc(N2CCn3c(C)cc4c(-c5ccc(Cl)cc5)c([C@H](OC(C)(C)C)C(=O)O)c(C)c2c43)nc1"
Resp: 1.2

Req: What does the data say about its EC90? Entry: "Cc1ccc(-c2c([C@H](OC(C)(C)C)C(=O)O)c(C)c3c4c2cc(C)n4CCN3c2ncc(O[C@H]3CCN(C)C3)cn2)cc1"
Resp: 7.5

Req: Query: EC90; subject: "Cc1ccc(-c2c([C@H](OC(C)(C)C)C(=O)O)c(C)c3c4c2cc(C)n4CCN3c2noc(C)n2)cc1"
Resp: 1.4

Req: For "COc1cnc(N2CCn3c(C)cc4c(-c5c(F)cc(C)cc5F)c([C@H](OC(C)(C)C)C(=O)O)c(C)c2c43)nc1" , what is its reported EC90?
Resp: 3.3

Req: Any idea what its EC90 is? The molecule is "[2H]C([2H])([2H])Oc1cnc(N2CCn3c(C)cc4c(-c5ccc(Cl)cc5)c([C@H](OC(C)(C)C)C(=O)O)c(C)c2c43)nc1"
Resp: 1.5
